assay: chemical genetic growth profiling, strain panel (AID 1159580);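 also: tested at 20 µM; growth read once vehicle control cultures reached saturation at 30 °C; lower values mean less growth of the strain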; conditions: S. cerevisiae deletion strains, growth OD, locus YNL298W, strain CLA4 (second series), stronger effect = lower value
About 2,000 (36%) of roughly 5,500 compounds were called active. Inconclusive results (about 18%) are left out. The list shows a part of the results.
Please assign false whenever normalized growth is at or above 1, and true whenever it is below.

smiles code	group
O=c1[nH]cnc2ccc(Br)cc12	false
Cc1ccc(-n2nc(-c3ccc(OC(F)(F)F)cc3)cc2NC(=O)Nc2ccc(OC(F)(F)F)cc2)cc1C	false
N/C(=N\OC(=O)c1ccno1)c1ccc(C(F)(F)F)cc1	true

Input line: Please indicate whether the reported normalized growth of O=c1[nH]c(-c2cc(Br)cs2)nc2ccc(Cl)cc12 is strictly below 1.
Output line: false
